Entries and their growth values follow.
- Test system: SN12C renal
- TEST_DESCRIPTION: NCI-60 one-dose screen, 48 h (100 = growth as untreated, 0 = no growth, -100 = all killed)
- CONDITION_LABEL: 10 µM
This is part of a sample that, as a whole, favours compounds with a hit. Of some 83,000 tested, about 20% had one in any assay. The source made the active and inactive calls. How the source made its calls: active means growth percent below 10; inactive means the rest.

Example entries begin here.
>>> experimental_value("O=C(Nc1cccc(Br)c1)Oc1cccc2cccnc12")
"99.4% (inactive)"
>>> experimental_value("COc1cc(NS(C)(=O)=O)ccc1Nc1c2ccccc2nc2ccccc12")
"10.6% (inactive) [middle of 4 runs]"
>>> experimental_value("COc1ccc(-c2cscc2N)cc1")
"71.2% (inactive)"

What the record says about `O=C(Nc1c(Cl)cccc1Cl)Oc1cccc2cccnc12` : growth is 53.9% (inactive)

---

- System: MOLT-4 leukemia
- TEST_DESCRIPTION: NCI-60 one-dose screen, 48 h
- CONDITION_LABEL: 10 µM unless noted
- Procedure: Growth inhibition of the MOLT-4 human tumor cell line is measured as a screen for anti-cancer activity. Cells are grown in 96 well plates and exposed to the test compound for 48 hours. Compounds are tested at a single concentration, which is 10^-5 M for most compounds. The reported endpoint is percent growth (GI% or GIPRCNT), where numbers from 0 - 100% represent growth inhibition, and numbers from -100% - 0 represent cell death. For example, a value of 40 represents 60% growth inhibition. […]
This is part of a sample that, as a whole, favours compounds with a hit. Of some 83,000 tested, about 20% had one in any assay. Calls of active or inactive are those of the source. The calls were made as follows: active = growth percent below 10; inactive = the rest.
Outcome field: choose from Y (active), N (inactive)

Study these solved cases before continuing.
>>> qualitative_label("CCN1/C(=C\\c2cc[n+](CC)c3ccccc23)C=Cc2ccccc21")
"N"
>>> qualitative_label("N#CC1C(=O)SC2c3ccccc3C(=O)c3ccccc3C12 (configuration not stated)")
"N"

Answer briefly: the call reported for `NC(=S)N/N=C/c1ccc(Cl)s1` in this assay.
N

Answer briefly: the call reported for `O=[N+]([O-])c1ccc2c(N=Nc3ccc4ccccc4c3O)c(O)cc(S(=O)(=O)O)c2c1` in this assay.
N

Answer briefly: the call reported for `O=C1c2ccccc2C(=O)N1c1ccccc1` in this assay.
N

Answer briefly: the call reported for `C/C=C1\SC(=S)NC1=O` in this assay.
N

Answer briefly: the call reported for `CCC(=O)Sc1ccccc1C(=O)Nc1ccc(Cl)cc1` in this assay.
N

Answer briefly: the call reported for `CN(C)c1ccc(N=Nc2cccc3ccccc23)cc1` in this assay.
N

Answer briefly: the call reported for CN(C)c1ccc(C(=C2C=CC(=[N+](C)C)C=C2)c2ccc(N(C)C)cc2)cc1 (tested in a mixture with another compound) in this assay.
Y

Answer briefly: the call reported for `O=C1c2ccccc2C(=O)c2sc(Nc3cccc(Cl)c3)nc21` in this assay.
Y

Answer briefly: the call reported for `CCOC(=O)/C=C/c1ccc([N+](=O)[O-])o1` in this assay.
Y

Answer briefly: the call reported for `CN(C)c1ccc(/C=N/N=C(\C#N)[S][Sn]([Cl])([c]2ccccc2)[c]2ccccc2)cc1` in this assay.
Y

Answer briefly: the call reported for `Cc1cc2nc(CS)[nH]c2cc1C` in this assay.
Y

Answer briefly: the call reported for `O=C1OCc2cccc3cccc1c23` in this assay.
N
